# System: HFF cells
Exam item: assign 1 to entries whose CC50 is below 200 µM and -1 to entries at or above 200 µM. Note that a value of exactly 200 µM receives -1.

1) Nc1nc(NC2CC2)c2ncn(CCOCP(=O)(O)O)c2n1; -1
2) C[C@H](NP1(=O)CO[C@@H](Cn2ccc(N)nc2=O)CO1)C(=O)OCCc1ccccc1 (some centres unmarked) [Phenethyl alaninyl cyclic HPMPC—mixture, Phenethyl alaninyl cyclic HPMPC]; -1
3) Nc1ncnc2c1ncn2C[C@@H](CO)OCP(=O)(O)O; -1
4) Nc1nc2c(ncn2CCOCP(=O)(O)O)c(=O)[nH]1; 1
5) CCCCOC(=O)[C@H](C)NP(=O)(COCCn1cnc2c(N)ncnc21)N[C@@H](C)C(=O)OCCCC; 1
6) CCOC(=O)C(C)NP1(=O)COC(Cn2ccc(N)nc2=O)CO1 (single isomer, unassigned; isomer i) [Ethyl alaninyl cyclic HPMPC—isomer I, Ethyl alaninyl cyclic HPMPC]; -1
7) CCCCOC(=O)C(C)NP(=O)(COCCn1cnc2c(NC3CC3)nc(N)nc21)NC(C)C(=O)OCCCC (centres unmarked); 1

Next:
Given the entry CCOC(=O)C(C)NP1(=O)COC(Cn2ccc(N)nc2=O)CO1 (single isomer, unassigned; isomer ii) [Ethyl alaninyl cyclic HPMPC—isomer II, Ethyl alaninyl cyclic HPMPC] , would its reported CC50 be below 200 µM?
-1
